Every entry's value here was drawn from patent US20240034731A1.

- system.name: CDK1/Cyclin B1 (Homo sapiens (Human), UniProt P06493)
- Sequence (P06493 whole entry): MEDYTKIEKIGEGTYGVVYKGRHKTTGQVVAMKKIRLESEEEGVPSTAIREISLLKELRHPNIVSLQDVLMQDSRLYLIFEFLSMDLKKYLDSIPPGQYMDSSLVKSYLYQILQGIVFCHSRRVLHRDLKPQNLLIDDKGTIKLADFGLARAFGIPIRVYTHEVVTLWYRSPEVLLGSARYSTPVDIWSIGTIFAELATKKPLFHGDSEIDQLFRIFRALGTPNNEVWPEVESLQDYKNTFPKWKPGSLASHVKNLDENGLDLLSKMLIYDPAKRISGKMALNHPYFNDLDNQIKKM
- Sequence (P14635 whole entry partner): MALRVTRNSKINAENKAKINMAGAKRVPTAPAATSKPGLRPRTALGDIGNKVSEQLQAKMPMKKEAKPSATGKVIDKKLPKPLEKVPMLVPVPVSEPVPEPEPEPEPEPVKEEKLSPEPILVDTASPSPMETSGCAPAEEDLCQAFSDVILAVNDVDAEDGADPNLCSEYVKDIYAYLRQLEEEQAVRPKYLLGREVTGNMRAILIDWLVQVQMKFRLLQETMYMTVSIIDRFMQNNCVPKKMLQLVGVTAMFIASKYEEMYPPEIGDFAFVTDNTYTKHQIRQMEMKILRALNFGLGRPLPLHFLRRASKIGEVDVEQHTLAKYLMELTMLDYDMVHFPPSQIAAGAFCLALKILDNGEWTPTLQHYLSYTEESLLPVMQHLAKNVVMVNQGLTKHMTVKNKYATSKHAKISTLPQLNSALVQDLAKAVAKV
- protocol: CDK1/Cyclin B1 ADP-Glo Kinase Assay
- Type: biochemical
- measurement.setup: ADP-Glo, 80 uM ATP; read-out: CDK1 Cyclin B1 IC50
pIC50: −log10 of the molar value.

| molecule | system.name | pIC50 |
| --- | --- | --- |
| Cc1cc2cnc(NC3CCN(S(=O)(=O)CC4CCCC4)CC3)nc2c(N2CC3(CCNC3)C2)n1 [Example 51] | CDK1/Cyclin B1 (Homo sapiens (Human), UniProt P06493) | 5.70 to 6.30 |
| Cc1cc2cnc(NC3CCN(S(=O)(=O)C4CC4)CC3)nc2c(N2CC3(CCNC3)C2)n1 [Example 25] | CDK1/Cyclin B1 (Homo sapiens (Human), UniProt P06493) | 6.30 to 6.70 |
| CN1Cc2ccc(Nc3ncc4ccnc(N5CCC6(CCN(S(C)(=O)=O)C6)C5)c4n3)cc2C1 (stereo not drawn) [Compound 23] | CDK1/Cyclin B1 (Homo sapiens (Human), UniProt P06493) | 5.70 to 6.30 |
| Cc1cc2cnc(NC3CCN(S(C)(=O)=O)CC3)nc2c(N2CC3(C2)CC(C)(O)C3)n1 [Compound 79] | CDK1/Cyclin B1 (Homo sapiens (Human), UniProt P06493) | 6.30 to 6.70 |
| Cc1cc2cnc(NC3CCN(S(=O)(=O)C4CC4)CC3)nc2c(N2CC(F)(F)C3(CN(C)C3)C2)n1 [Compound 102] | CDK1/Cyclin B1 (Homo sapiens (Human), UniProt P06493) | > 6.70 |
| Cc1cc2cnc(N[C@H]3CC[C@@H](CN(C)C)CC3)nc2c(N2CCC3(C2)CC3(F)F)n1 (stereo partly drawn) [Compound 45] | CDK1/Cyclin B1 (Homo sapiens (Human), UniProt P06493) | 9.00 |
| Cc1cc2cnc(Nc3cnn(CC4(N(C)C)CC4)c3)nc2c(N2CCC3(C2)CC3(F)F)n1 (stereo not drawn) [Compound 36] | CDK1/Cyclin B1 (Homo sapiens (Human), UniProt P06493) | < 5.70 |
| Cc1cc2cnc(Nc3cc4c(cc3F)CN(S(C)(=O)=O)C4)nc2c(N2CC3(CNC3)C2)n1 [Compound 37] | CDK1/Cyclin B1 (Homo sapiens (Human), UniProt P06493) | < 5.70 |
| Cc1cc2cnc(Nc3cnn(C4CC5(C4)CN(C)C5)c3)nc2c(N2CCC3(C2)CC3(F)F)n1 (stereo not drawn) [Compound 33] | CDK1/Cyclin B1 (Homo sapiens (Human), UniProt P06493) | 5.70 to 6.30 |
| CS(=O)(=O)N1CCC(Nc2ncc3ccnc(N4C[C@H]5c6ccccc6S(=O)(=O)[C@H]5C4)c3n2)CC1 [Compound 16] | CDK1/Cyclin B1 (Homo sapiens (Human), UniProt P06493) | > 6.70 |
| Cc1cc2cnc(NC3CCN(S(=O)(=O)C4(C)CC4)CC3)nc2c(N2CCC3(CN(C)C3)C2)n1 [Compound 59] | CDK1/Cyclin B1 (Homo sapiens (Human), UniProt P06493) | 5.70 to 6.30 |
| Cc1cc2cnc(NC3CCN(S(=O)(=O)C4CC4)CC3)nc2c(N2CC3(CC(O)C3)C2)n1 [Compound 66] | CDK1/Cyclin B1 (Homo sapiens (Human), UniProt P06493) | 5.70 to 6.30 |
| Cc1cc2cnc(Nc3ccc(N4CC5(CN(C)C5)C4)cc3)nc2c(N2CCC(C#N)(C3CC3)C2)n1 (stereo not drawn) [Compound 28] | CDK1/Cyclin B1 (Homo sapiens (Human), UniProt P06493) | 5.70 to 6.30 |
| Cc1cc2cnc(NC3CCN(S(C)(=O)=O)CC3)nc2c(N2CC3(CNCC3C(F)F)C2)n1 (stereo not drawn) [Compound 100] | CDK1/Cyclin B1 (Homo sapiens (Human), UniProt P06493) | > 6.70 |
| Cc1cc2cnc(NC3CCN(S(C)(=O)=O)CC3)nc2c(C2CC(O)(C3CC3)C2)n1 (stereo not drawn) [Example 88] | CDK1/Cyclin B1 (Homo sapiens (Human), UniProt P06493) | 6.30 to 6.70 |
